# assayComment: qHTS assay to identify small molecule agonists of the androgen receptor (AR) signaling pathway in the presence of an antagonist - cell viability counter screen (AID 1259379); also: nearly all actives have a fitted effect of over 25% in size
# experimentalConditions: MDA-kb2 viability, CellTiter-Fluor, 16 h; series mostly up to 92.4 µM
Results filed as inconclusive are left out. Activity calls are given as the source filed them. Calls follow the shape of the dose curve; as a rule, active = well fitted cell-killing curve with a large enough effect in the repeat runs; inconclusive = weak or mixed curves, or effect the other way; inactive = flat fitted curve, though single readings scatter.
Write down one outcome, taken from active, inactive

Problem: Returns: the outcome recorded for Nc1ncnc2c1ncn2[C@@H]1O[C@H](COP(=O)(O)O)[C@@H](O)[C@H]1O in this assay.
Solution: inactive

Problem: Returns: the outcome recorded for NCCCCCCNCCCCCCN in this assay.
Solution: inactive

Problem: Returns: the outcome recorded for O=C(Oc1ccccc1)c1cccc(C(=O)Oc2ccccc2)c1 in this assay.
Solution: inactive

Problem: Returns: the outcome recorded for CNC(=O)c1cc(Oc2ccc(NC(=O)Nc3ccc(Cl)c(C(F)(F)F)c3)cc2)ccn1 in this assay.
Solution: active

Problem: Returns: the outcome recorded for C[Si](C)(C)Cl in this assay.
Solution: inactive

Problem: Returns: the outcome recorded for CN(C)c1ccc(N=Nc2ccccc2C(=O)O)cc1 in this assay.
Solution: active

Problem: Returns: the outcome recorded for Clc1ccc(C(c2ccccc2Cl)C(Cl)Cl)cc1 (stereo not drawn) in this assay.
Solution: inactive

Problem: Returns: the outcome recorded for COC(=O)CC(C)CCC=C(C)C (stereo not drawn) in this assay.
Solution: inactive

Problem: Returns: the outcome recorded for CC(C)CCOCCC(C)C in this assay.
Solution: inactive

Problem: Returns: the outcome recorded for CCc1c(C(=O)O)c(=O)cnn1-c1ccc(Cl)cc1 in this assay.
Solution: inactive

Problem: Returns: the outcome recorded for CCCCC(CC)COC(=O)c1ccc(O)cc1 (stereo not drawn) in this assay.
Solution: inactive

Problem: Returns: the outcome recorded for CCc1cccc(CC)c1NC(=O)C(=O)O in this assay.
Solution: inactive

Problem: Returns: the outcome recorded for CC1=CCC(=O)O1 in this assay.
Solution: inactive

Taken from PubChem BioAssay (Tox21).
